methodSummary: qHTS assay to identify small molecule antagonists of the thyroid receptor (TR) signaling pathway - cell viability counter screen (AID 743064); also: nearly all actives have a fitted effect of over 50% in size
runParameters: GH3.TRE-Luc viability, CellTiter-Fluor, 24 h; series mostly up to 70.3 µM
Records with an inconclusive call do not appear. Activity calls are given as the source filed them. Calls follow the shape of the dose curve; as a rule, active = well fitted cell-killing curve with a large enough effect in the repeat runs; inconclusive = weak or mixed curves, or effect the other way; inactive = no such curve, though single readings can be large or run the other way.
Outcomes: active, inactive

{"columns": ["molecule", "labelValue"],
 "data": [
  ["CCCCCCCCCCCCCCCCCCCCCCO", "inactive"],
  ["CCOC(=O)Cc1cccc(-c2cc(CCCCCCc3ccc(O[C@H]4O[C@H](COC(C)=O)[C@@H](OC(C)=O)[C@H](OC(C)=O)[C@@H]4OC(C)=O)c(-c4cccc(CC(=O)OCC)c4)c3)ccc2O[C@H]2O[C@H](COC(C)=O)[C@@H](OC(C)=O)[C@H](OC(C)=O)[C@@H]2OC(C)=O)c1", "inactive"],
  ["CCC(Oc1ccccc1)C(=O)N[C@@H]1C(=O)N2[C@@H]1SC(C)(C)[C@@H]2C(=O)O (stereo partly drawn)", "inactive"],
  ["COC(=O)CCC[N+](C)(C)C", "inactive"],
  ["CC(C)(C)NC[C@H](O)COc1ccccc1C1CCCC1", "active"],
  ["CO[C@H]1[C@@H](O)[C@H](N)[C@@H](O[C@H]2O[C@H]([C@H](C)N)CC[C@H]2N)[C@H](O)[C@@H]1N(C)C(=O)CN", "inactive"],
  ["C=C1CC2C3CCC4=CC(=O)C=C[C@]4(C)[C@@]3(F)[C@@H](O)C[C@]2(C)[C@@]1(O)C(=O)COC(C)=O (stereo partly drawn)", "inactive"],
  ["COc1cc(C[C@@H]2NCCc3cc(O)c(O)cc32)cc(OC)c1OC", "inactive"]
]}

Reference source: PubChem BioAssay (Tox21)
